Biological target: HIV-1 pseudovirus Ce1176_A3 (HIV-1)
Test: cell-based or functional assay
So basically: is IC80 (neutralization in TZM.bl cells) under 0.8 µg/mL? Then T. Not under? Then F.

- binder: "MS-91 (antibody, V domains shown) VH: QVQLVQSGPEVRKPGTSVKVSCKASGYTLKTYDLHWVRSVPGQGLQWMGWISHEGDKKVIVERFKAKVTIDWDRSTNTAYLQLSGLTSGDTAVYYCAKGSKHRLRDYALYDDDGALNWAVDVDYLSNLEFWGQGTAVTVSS VL: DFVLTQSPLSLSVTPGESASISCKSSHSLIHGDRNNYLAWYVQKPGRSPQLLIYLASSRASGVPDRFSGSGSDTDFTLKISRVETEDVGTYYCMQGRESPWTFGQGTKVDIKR"
  group: "F"
- binder: "MS-81 (antibody, V domains shown) VH: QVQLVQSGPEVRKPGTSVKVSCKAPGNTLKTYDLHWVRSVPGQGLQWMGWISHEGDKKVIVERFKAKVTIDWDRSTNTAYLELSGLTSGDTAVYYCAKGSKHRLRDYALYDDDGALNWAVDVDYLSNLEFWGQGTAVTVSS VL: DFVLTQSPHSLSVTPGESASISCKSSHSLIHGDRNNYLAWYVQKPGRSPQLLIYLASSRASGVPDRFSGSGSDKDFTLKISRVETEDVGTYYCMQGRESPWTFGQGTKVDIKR"
  group: "T"
- binder: "MS-84 (antibody, V domains shown) VH: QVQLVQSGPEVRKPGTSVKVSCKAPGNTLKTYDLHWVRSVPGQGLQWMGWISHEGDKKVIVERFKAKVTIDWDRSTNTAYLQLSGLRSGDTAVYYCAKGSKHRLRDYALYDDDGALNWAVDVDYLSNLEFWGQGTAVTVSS VL: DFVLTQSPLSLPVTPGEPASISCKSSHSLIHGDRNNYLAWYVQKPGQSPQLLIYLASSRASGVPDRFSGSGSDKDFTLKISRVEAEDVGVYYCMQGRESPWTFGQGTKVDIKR"
  group: "T"
- binder: "MS-78 (antibody, V domains shown) VH: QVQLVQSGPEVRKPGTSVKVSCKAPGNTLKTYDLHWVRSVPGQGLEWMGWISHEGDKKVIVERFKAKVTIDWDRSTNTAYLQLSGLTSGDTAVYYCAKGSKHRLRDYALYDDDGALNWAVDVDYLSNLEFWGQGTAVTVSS VL: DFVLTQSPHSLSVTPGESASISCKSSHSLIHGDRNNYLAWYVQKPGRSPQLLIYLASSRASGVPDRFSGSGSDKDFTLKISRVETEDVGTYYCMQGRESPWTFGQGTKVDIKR"
  group: "F"
- binder: "MS-80 (antibody, V domains shown) VH: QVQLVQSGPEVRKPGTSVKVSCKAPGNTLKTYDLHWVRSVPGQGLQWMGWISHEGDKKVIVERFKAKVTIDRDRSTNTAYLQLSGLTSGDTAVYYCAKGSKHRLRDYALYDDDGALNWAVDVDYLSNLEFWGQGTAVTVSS VL: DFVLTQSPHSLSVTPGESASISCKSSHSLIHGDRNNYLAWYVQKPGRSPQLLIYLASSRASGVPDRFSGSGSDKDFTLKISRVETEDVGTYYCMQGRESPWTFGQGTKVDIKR"
  group: "F"
- binder: "MS-89 (antibody, V domains shown) VH: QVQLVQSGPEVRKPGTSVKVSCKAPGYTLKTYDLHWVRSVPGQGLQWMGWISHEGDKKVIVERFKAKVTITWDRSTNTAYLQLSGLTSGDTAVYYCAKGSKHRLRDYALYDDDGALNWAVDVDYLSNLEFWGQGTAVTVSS VL: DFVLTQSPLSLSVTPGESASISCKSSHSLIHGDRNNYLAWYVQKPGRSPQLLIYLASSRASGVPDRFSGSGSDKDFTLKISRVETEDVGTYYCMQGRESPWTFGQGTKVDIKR"
  group: "F"
- binder: "MS-83 (antibody, V domains shown) VH: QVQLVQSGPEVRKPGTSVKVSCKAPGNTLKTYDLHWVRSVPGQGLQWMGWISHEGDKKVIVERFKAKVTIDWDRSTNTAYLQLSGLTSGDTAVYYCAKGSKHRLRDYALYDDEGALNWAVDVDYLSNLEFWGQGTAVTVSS VL: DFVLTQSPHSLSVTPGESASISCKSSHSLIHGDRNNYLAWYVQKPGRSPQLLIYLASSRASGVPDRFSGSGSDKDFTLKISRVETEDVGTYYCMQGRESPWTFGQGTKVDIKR"
  group: "T"
- binder: "MS-70 (antibody, V domains shown) VH: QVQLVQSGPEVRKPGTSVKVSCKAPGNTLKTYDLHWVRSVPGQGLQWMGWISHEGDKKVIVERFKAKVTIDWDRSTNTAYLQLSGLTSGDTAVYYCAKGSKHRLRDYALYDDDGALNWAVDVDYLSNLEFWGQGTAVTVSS VL: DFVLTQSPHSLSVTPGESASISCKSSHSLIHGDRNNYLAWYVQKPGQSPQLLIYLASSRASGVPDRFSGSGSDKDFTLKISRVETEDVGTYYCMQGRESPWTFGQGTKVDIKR"
  group: "F"
- binder: "MS-79 (antibody, V domains shown) VH: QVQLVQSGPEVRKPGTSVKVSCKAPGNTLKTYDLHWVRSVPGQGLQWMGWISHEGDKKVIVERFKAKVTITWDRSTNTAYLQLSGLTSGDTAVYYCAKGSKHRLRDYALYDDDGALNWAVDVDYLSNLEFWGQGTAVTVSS VL: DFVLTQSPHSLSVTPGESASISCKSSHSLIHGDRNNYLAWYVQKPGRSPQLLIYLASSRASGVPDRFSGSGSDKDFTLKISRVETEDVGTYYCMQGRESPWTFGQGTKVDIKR"
  group: "F"
